tested on: CYP3A4; assay: THC incubations with recombinant CYP3A4 in the presence and absence of FABP1; format: in vitro ADME, human; conditions: human, recombinant CYP3A4 (Supersomes) with 20 μM FABP1, Km,u + FABP1, M4 formation, recombinant CYP3A4, 20 μM FABP1
MEASURED PARAMETER: Km at 1 min

INSERT INTO measurements (molecule, result) VALUES
  ('CCCCCc1cc(O)c2c(c1)OC(C)(C)[C@@H]1CCC(C)=C[C@@H]21 [THC, Δ9-tetrahydrocannabinol]', '> 0.02 µM');

====

tested on: CYP3A4; assay: THC incubations with recombinant CYP3A4 in the presence and absence of FABP1; format: in vitro ADME, human; conditions: human, recombinant CYP3A4 (Supersomes), Km,u −FABP1, M3 formation, recombinant CYP3A4, absence of FABP1
MEASURED PARAMETER: Km at 1 min (µM)

INSERT INTO results (compound, value_units, number) VALUES
  ('CCCCCc1cc(O)c2c(c1)OC(C)(C)[C@@H]1CCC(C)=C[C@@H]21 [THC, Δ9-tetrahydrocannabinol]', 'µM', 0.018);

// provenance: paper PMC11410521
